All figures here come from patent US9598463B2.

Experiment: Qualitative solubility of test peptides in 0.5 N saline
Type: physicochemical
Conditions: pH 6.5, 20° C. (table title)
Where a SMILES comes first, the peptide text is derived from it. The star is where a group is joined. Myristoyl = CCCCCCCCCCCCCC(=O)*
VALUE_TYPE: solubility

Worked cases, answers included:
COMPOUND	solubility
CCCCCCCCCCCCCC(=O)NCC(=O)N[C@@H](C)C(=O)N[C@@H](CCC(N)=O)C(=O)N[C@@H](Cc1ccccc1)C(=O)N[C@@H](CO)C(=O)N[C@@H](CCCCN)C(=O)N[C@H](C(=O)N[C@@H](C)C(=O)N[C@@H](C)C(=O)N[C@@H](CCCCN)C(N)=O)[C@@H](C)O [myr-peptide 106-NH2] (Myristoyl-GAQFSKTAAK-NH2)	< 10000 µg/mL
CCCCCCCCCCCCCC(=O)NCC(=O)N[C@@H](C)C(=O)N[C@@H](CCC(N)=O)C(=O)N[C@@H](Cc1ccccc1)C(=O)N[C@@H](CO)C(=O)N[C@@H](CCCCN)C(=O)N[C@H](C(=O)N[C@@H](C)C(=O)N[C@@H](C)C(=O)O)[C@@H](C)O [myr-peptide 121] (Myristoyl-GAQFSKTAA-OH)	< 1000 µg/mL
CCCCCCCCCCCCCC(=O)NCC(=O)N[C@@H](C)C(=O)N[C@@H](CCC(=O)O)C(=O)N[C@@H](Cc1ccccc1)C(=O)N[C@@H](CO)C(=O)N[C@@H](CCCCN)C(=O)N[C@H](C(=O)N[C@@H](C)C(=O)N[C@@H](C)C(=O)N[C@@H](CCCCN)C(=O)NCC(=O)N[C@@H](CCC(=O)O)C(=O)O)[C@@H](C)O [myr-peptide 238] (Myristoyl-GAEFSKTAAKGE-OH)	> 2000 µg/mL
CCCCCCCCCCCCCC(=O)N[C@H](C(=O)N[C@@H](C)C(=O)N[C@@H](C)C(=O)N[C@@H](CCCCN)C(=O)NCC(=O)N[C@@H](CCC(=O)O)C(=O)N[C@@H](C)C(=O)N[C@@H](C)C(=O)O)[C@@H](C)O [myr-peptide 143] (Myristoyl-TAAKGEAA-OH)	< 1000 µg/mL
CCCCCCCCCCCCCC(=O)NCC(=O)N[C@@H](C)C(=O)N[C@@H](CCC(N)=O)C(=O)N[C@@H](C)C(=O)N[C@@H](CO)C(=O)N[C@@H](CCCCN)C(=O)N[C@H](C(=O)N[C@@H](C)C(=O)N[C@@H](C)C(=O)N[C@@H](CCCCN)C(N)=O)[C@@H](C)O [myr-peptide 236-NH2] (Myristoyl-GAQASKTAAK-NH2)	< 10000 µg/mL

Attention now turns to another entry.
Name the reported solubility value associated with the compound CCCCCCCCCCCCCC(=O)NCC(=O)N[C@@H](C)C(=O)N[C@@H](CCC(N)=O)C(=O)N[C@@H](C)C(=O)N[C@@H](CO)C(=O)N[C@@H](CCCCN)C(=O)N[C@H](C(=O)N[C@@H](C)C(=O)N[C@@H](C)C(=O)N[C@@H](CCCCN)C(=O)NCC(=O)N[C@@H](CCC(=O)O)C(=O)O)[C@@H](C)O [myr-peptide 237] (Myristoyl-GAQASKTAAKGE-OH)
< 1000 µg/mL

----------
Test: Qualitative solubility of test peptides in 0.5 N saline
Assay type: physicochemical
Conditions: pH 6.5, 20° C. (table title)
# reported solubility; entries follow

Recorded solubility, per entry:
SUBSTANCE	OBS_VALUE
Ac-GAQFSATAAK-OH [Ac-peptide 245]	> 100 mg/mL
Ac-QFSKTAAKGE-NH2 [Ac-peptide 108-NH2]	> 150 mg/mL
Ac-GAQFSKTAAKGA-OH [Ac-peptide 241]	> 50 mg/mL
Ac-GAQFSKTAAKGE-NH2 [Ac-peptide 79-NH2]	> 60 mg/mL

# input substance: Ac-KTAAKGE-NH2 [Ac-peptide 159-NH2] ; wanted: its solubility
> 200 mg/mL

Please give the measured solubility for this substance: Ac-GAQASKTAAK-OH [Ac-peptide 236]
> 80 mg/mL

So what does the record say about solubility for H-GAQFSKTAAK-NH2 [peptide 106-NH2] ?
> 100 mg/mL

Item Ac-GAQFSKTAAKGEAAAERPGEAAVA-OH [Ac-peptide 1] has what recorded solubility?
> 125 mg/mL

# solubility lookup, item H-GAQFSKTAAKGE-OH [peptide 79, GAQFSKTAAKGE]
> 60 mg/mL

Quick one: solubility of Ac-GAQFSKTA-OH [Ac-peptide 137] ?
> 200 mg/mL

Fill in: solubility of Ac-GAQFSKTAAK-OH [Ac-peptide 106] is ___
> 100 mg/mL

Look up solubility: Ac-GAQFSKTAAA-OH [Ac-peptide 248]
> 100 mg/mL
